assay: chemical genetic growth profiling, strain panel (AID 1159580);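 also: tested at 20 µM; growth read once vehicle control cultures reached saturation at 30 °C; 1 = growth at the plate median or of vehicle wells; lower values mean less growth of the strain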; settings: S. cerevisiae deletion strains, growth OD, locus YPL241C, strain CIN2, hits give low values
About 2,000 (36%) of roughly 5,500 compounds were called active. About 18% were inconclusive and are not listed. The list shows a part of the results.
Test Readout: normalized growth
Answer as a number with no unit attached.

Recorded normalized growth for O=C(O)c1nc2cc(Cl)c(Cl)cc2[nH]c1=O , please?
0.992

Recorded normalized growth for O=c1c(-c2ccc(O)cc2)coc2cc(O)cc(O)c12 , please?
1

Recorded normalized growth for CN1CCN2c3ccccc3Cc3ccccc3C2C1 (stereo unspecified) , please?
1.01

Recorded normalized growth for N#Cc1ccc([N+](=O)[O-])s1 , please?
0.0815

Recorded normalized growth for CCN1CCC[C@H]1CNC(=O)c1c(O)c(Cl)cc(Cl)c1OC , please?
0.996

Recorded normalized growth for C#CCOS(=O)OC1CCCCC1Oc1ccc(C(C)(C)C)cc1 (stereo unspecified) , please?
1.03

Recorded normalized growth for CC(=O)[C@H]1CCC2C3CC=C4C[C@@H](O)CC[C@]4(C)C3CC[C@@]21C (stereo partly specified) , please?
1

Recorded normalized growth for O=C1CCc2cc(OCCCCc3nnnn3C3CCCCC3)ccc2N1 , please?
1

Recorded normalized growth for CCN1CN=C(SCc2ccc(C)cc2)NC1 , please?
0.978

Recorded normalized growth for CCCCCn1c(Sc2ncc([N+](=O)[O-])s2)n[nH]c1=O , please?
0.1

Recorded normalized growth for CN(C)CC/C=C1/c2ccccc2COc2ccccc21 , please?
1.01

Recorded normalized growth for CC(=O)[C@H]1CCC2C3CC=C4C[C@@H](OS(=O)(=O)O)CC[C@]4(C)C3CC[C@@]21C (stereo partly specified) , please?
0.984

Recorded normalized growth for CC1(C)O[C@@H]2CC3C4C[C@H](F)C5=CC(=O)C=C[C@]5(C)[C@@]4(F)[C@@H](O)C[C@]3(C)[C@]2(C(=O)CO)O1 (stereo partly specified) , please?
1

Recorded normalized growth for O=C(NCC1CCCCN1)c1cc(OCC(F)(F)F)ccc1OCC(F)(F)F (stereo unspecified) , please?
0.998

Recorded normalized growth for CC1=C2C(=CO[C@H](C)[C@H]2C)C(=O)C(C(=O)O)=C1O , please?
0.971

Recorded normalized growth for O=C1CC[C@]23C=CC(=O)NCCCCNCCCNC(=O)/C=C/c4ccc(c2c4)O[C@@H]3C1 , please?
1.01

Recorded normalized growth for CC(=O)c1csc(-c2ccc(C(F)(F)F)cc2)n1 , please?
0.841

Recorded normalized growth for O=C1CCCc2c1nc(-c1ccccc1)n2O , please?
1.02

Recorded normalized growth for O=C1NC(c2ccccc2Cl)Nc2ccccc21 (stereo unspecified) , please?
0.981

Recorded normalized growth for COCCOC(=O)C1=C(C)NC(C)=C(C(=O)OC(C)C)C1c1cccc([N+](=O)[O-])c1 (stereo unspecified) , please?
0.985

Recorded normalized growth for O=c1c2ccccc2oc2ccc(O)cc12 , please?
0.941

Recorded normalized growth for O=c1c(-c2ccccc2)coc2cc(O)cc(O)c12 , please?
0.911

Recorded normalized growth for O=C1CCCc2c1c1ccccc1n2Cc1ccccc1 , please?
0.987

Recorded normalized growth for CSC(=NCc1cccnc1)NC#N , please?
0.987

Recorded normalized growth for CC(C)C[C@H](NC(=O)C1OC1C(=O)O)C(=O)NCCCCN=C(N)N (stereo partly specified) , please?
0.995

Recorded normalized growth for O=c1c(-c2cc(O)c(O)c(O)c2)coc2cc(O)c(O)c(O)c12 , please?
0.948

----------
Give measured normalized growth for each item. Keep answers brief.
experiment: chemical genetic growth profiling, strain panel (AID 1159580); conditions: S. cerevisiae deletion strains, growth OD, locus YDL035C, strain GPR1, hits give low values
In all, about 5,500 compounds went through this assay and about 2,000 (36%) were called active. Not shown: some 18% with an inconclusive outcome. Some of the results follow.
Answer as a number with no unit attached.

Recorded normalized growth for COCCOC(=O)C1=C(C)NC(C)=C(C(=O)OC(C)C)C1c1cccc([N+](=O)[O-])c1 (stereo not drawn) , please?
1.01

Recorded normalized growth for COC(=O)C1=C(C)NC(C)=C(C(=O)OCCN(C)Cc2ccccc2)C1c1cccc([N+](=O)[O-])c1 (stereo not drawn) , please?
0.983

Recorded normalized growth for COc1c(O)cccc1O , please?
1.02

----------
assay: chemical genetic growth profiling, strain panel (AID 1159580);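 also: tested at 20 µM; growth read once vehicle control cultures reached saturation at 30 °C; 1 = growth at the plate median or of vehicle wells; lower values mean less growth of the strain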; details: S. cerevisiae deletion strains, growth OD, locus YPL078C, strain atp4, hits give low values
About 2,000 (36%) of roughly 5,500 compounds were called active. Roughly 18% stayed inconclusive and do not appear here. Some of the results follow.
Test Readout: normalized growth
Answer as a number with no unit attached.

Recorded normalized growth for COc1ccc(-c2cc(=O)c3cc(OC)ccc3o2)cc1 , please?
0.922

Recorded normalized growth for CC(=O)Nc1cccc(O)c1 , please?
1.04

Recorded normalized growth for COc1cc([C@@H]2c3cc4c(cc3C(O[C@@H]3O[C@@H]5CO[C@@H](c6cccs6)OC5[C@H](O)[C@H]3O)C3COC(=O)[C@@H]32)OCO4)cc(OC)c1O (stereo partly specified) , please?
1.03

Recorded normalized growth for CC1(C)O[C@@H]2CC3C4C[C@H](F)C5=CC(=O)C=C[C@]5(C)[C@@]4(F)[C@@H](O)C[C@]3(C)[C@]2(C(=O)CO)O1 (stereo partly specified) , please?
1.02

Recorded normalized growth for Nc1ccc(C(=O)Oc2ccccc2)c(O)c1 , please?
0.929

Recorded normalized growth for CN1CCOC(c2ccccc2)c2ccccc2C1 (stereo unspecified) , please?
0.979

----------
assay: chemical genetic growth profiling, strain panel (AID 1159580);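 also: tested at 20 µM; growth read once vehicle control cultures reached saturation at 30 °C; 1 = growth at the plate median or of vehicle wells; lower values mean less growth of the strain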; conditions: S. cerevisiae deletion strains, growth OD, locus YPL078C, strain atp4, hits give low values
The campaign covered roughly 5,500 compounds. About 2,000 (36%) were called active. Not shown: some 18% with an inconclusive outcome. Some of the results follow.
Test Readout: normalized growth
Answer as a number with no unit attached.

Recorded normalized growth for O=c1oc2ccccc2c(O)c1Cc1c(O)c2ccccc2oc1=O , please?
1.02

Recorded normalized growth for CC(=O)Oc1ccc(-c2cc(=O)c3c(OC(C)=O)cc(OC(C)=O)cc3o2)cc1 , please?
0.984

Recorded normalized growth for O=C(O)c1cc(=O)c2ccccc2o1 , please?
0.975

Recorded normalized growth for C=C1C(N)CC2CC1C2(C)C (stereo unspecified) , please?
1

Recorded normalized growth for CCCN1C[C@H](CSC)C[C@@H]2c3cccc4[nH]cc(c34)C[C@H]21 , please?
1.01

Recorded normalized growth for CC(=O)CC(c1ccccc1)c1c(O)c2ccccc2oc1=O (stereo unspecified) , please?
1.02

----------
test: chemical genetic growth profiling, strain panel (AID 1159580);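 also: tested at 20 µM; growth read once vehicle control cultures reached saturation at 30 °C; 1 = growth at the plate median or of vehicle wells; lower values mean less growth of the strain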; conditions: S. cerevisiae deletion strains, growth OD, locus YJR043C, strain POL32
Among all 5,500 compounds or so, about 2,000 (36%) were called active. Another 18% or so got no clear call; they are omitted. No stated cut-off is given here; in the data, active means normalized growth mostly below about 0.91 (no sharp cut-off); inconclusive means no clear call, values can overlap the other calls; inactive means mostly above about 0.92. Some of the results follow.
Please answer using one outcome listed in y for active, n for inactive

What did this assay record as the result for O=C1c2c(O)ccc(O)c2C(=O)c2c(NCCNCCO)ccc(NCCNCCO)c21 ?
y

What did this assay record as the result for O=C1CCCc2c1nc(-c1ccccc1)n2O ?
n

What did this assay record as the result for CCCCCCCCCc1ccc(O)cc1 ?
y

What did this assay record as the result for COC(=O)C1=C(C)NC(C)=C(C(=O)OC)C1c1ccccc1[N+](=O)[O-] ?
y

What did this assay record as the result for NCCc1ccc(O)cc1 ?
n

What did this assay record as the result for Cc1ccc(OCC(=O)NN)c2c1CCC2 ?
n

What did this assay record as the result for CCN(CCCCOC(=O)c1ccc(OC)c(OC)c1)C(C)Cc1ccc(OC)cc1 (configuration not stated) ?
n

What did this assay record as the result for Nc1ccc(C(=O)O)c(O)c1 (tested in a mixture with another compound) ?
n

What did this assay record as the result for NCCc1cccc(O)c1 ?
n

What did this assay record as the result for COC(=O)C1=C(C)NC(C)=C(C(=O)OCCN(C)Cc2ccccc2)C1c1cccc([N+](=O)[O-])c1 (configuration not stated) ?
n

What did this assay record as the result for O=C1CCCc2c1c1ccccc1n2Cc1ccccc1 ?
n

What did this assay record as the result for CC(=O)Nc1ccc(O)cc1 ?
n

What did this assay record as the result for CCCCC1C(=O)N(c2ccccc2)N(c2ccccc2)C1=O ?
n

What did this assay record as the result for CC(C)(C)OC(=O)NC1CCN(C(=O)c2ccc(Cl)cc2Cl)CC1 ?
n

What did this assay record as the result for COCCOC(=O)C1=C(C)NC(C)=C(C(=O)OC(C)C)C1c1cccc([N+](=O)[O-])c1 (configuration not stated) ?
n

What did this assay record as the result for Cc1cc(Br)c(OCC(=O)NN)c2c1CCC2 ?
n

What did this assay record as the result for CCN(CC)CCNc1ccc(CO)c2sc3ccccc3c(=O)c12 ?
n

Origin of the recorded values: PubChem BioAssay AID1159580
